test system: K-562 cells; test: Cytotoxic activity against K-562 cells; format: cell-based; conditions: Homo sapiens; K562 cells, 48 hours, 37° C.; read-out: ED50, cytotoxic activity against K562
Assign labels as follows, please: true (1) for IC50 below 0.2 µg/mL; false (0) for IC50 equal to or exceeding 0.2 µg/mL.

>>> print(df.to_string())
                                    molecule      label
 0  CCCCCCCCCCCCC(OC(=O)CCC)C1=CC(=O)c2c(O)ccc(O)c2C1=O (stereo not drawn)  false (0)
 1  CC/C=C/CC(=O)OC(CCCCCCCCC)C1=CC(=O)c2c(O)ccc(O)c2C1=O (stereo not drawn)  false (0)
 2  CCCCCCCC(=O)OC(CCCCC)C1=CC(=O)c2c(O)ccc(O)c2C1=O (stereo not drawn)  false (0)
 3  CC(C)CCOC(CCC(C)C)C1=CC(=O)c2c(O)ccc(O)c2C1=O (stereo not drawn)   true (1)
 4  CCCCCCCCCCCCC(O)C1=CC(=O)c2c(OC)ccc(OC)c2C1=O (stereo not drawn)  false (0)
 5  CCCCC(O)C1=CC(=O)c2c(OC)ccc(OC)c2C1=O (stereo not drawn)  false (0)
 6  CCOC(CCC(C)C)C1=CC(=O)c2c(OC)ccc(OC)c2C1=O (stereo not drawn)  false (0)
 7  CC(=O)OC(CCC(C)C)C1=CC(=O)c2c(O)ccc(O)c2C1=O (stereo not drawn)   true (1)
 8  CC(C)CCC(O)C1=CC(=O)c2c(O)ccc(O)c2C1=O (stereo not drawn) [reference compound]   true (1)
 9  CCCCCC(O)C1=CC(=O)c2c(O)ccc(O)c2C1=O (stereo not drawn)   true (1)
10  COc1ccc(OC)c2c1C(=O)C=C(C(CCC(C)C)OC)C2=O (stereo not drawn)  false (0)
11  CCCCCCCCCC(O)C1=CC(=O)c2c(OC)ccc(OC)c2C1=O (stereo not drawn)  false (0)
12  CCCCCCCC(=O)OC(CCC(C)C)C1=CC(=O)c2c(O)ccc(O)c2C1=O (stereo not drawn)  false (0)
13  CCCCCCCCCCCCC(OC(C)=O)C1=CC(=O)c2c(O)ccc(O)c2C1=O (stereo not drawn)  false (0)
14  CCCCCCCCCC(OC(=O)CCCCCCC)C1=CC(=O)c2c(O)ccc(O)c2C1=O (stereo not drawn)  false (0)
15  COc1ccc(OC)c2c1C(=O)C=C(C(CCC(C)C)OCCC(C)C)C2=O (stereo not drawn)  false (0)
16  CCCCCCCCCCCCOC(CCC(C)C)C1=CC(=O)c2c(OC)ccc(OC)c2C1=O (stereo not drawn)  false (0)
17  CCCCCCCCCCCCC(OC(=O)CCCCC)C1=CC(=O)c2c(O)ccc(O)c2C1=O (stereo not drawn)  false (0)
18  CCCCCCCCCC(OC(=O)CCCCC)C1=CC(=O)c2c(O)ccc(O)c2C1=O (stereo not drawn)  false (0)
19  CCCCCCCCCCCCOC(CCC(C)C)C1=CC(=O)c2c(O)ccc(O)c2C1=O (stereo not drawn)  false (0)
20  CCCCCC(O)C1=CC(=O)c2c(OC)ccc(OC)c2C1=O (stereo not drawn)  false (0)
21  CCCCCCCCCC(O)C1=CC(=O)c2c(O)ccc(O)c2C1=O (stereo not drawn)  false (0)
22  CCCCCCCCCC(OC(C)=O)C1=CC(=O)c2c(O)ccc(O)c2C1=O (stereo not drawn)   true (1)
23  CCCCCCCC(O)C1=CC(=O)c2c(OC)ccc(OC)c2C1=O (stereo not drawn)  false (0)
24  COc1ccc(OC)c2c1C(=O)C=C(C(O)CCC(C)C)C2=O (stereo not drawn)  false (0)
25  COC(CCC(C)C)C1=CC(=O)c2c(O)ccc(O)c2C1=O (stereo not drawn)   true (1)
26  CCCCCC(OC(C)=O)C1=CC(=O)c2c(O)ccc(O)c2C1=O (stereo not drawn)   true (1)
27  CCCCCC(=O)OC(CCC(C)C)C1=CC(=O)c2c(O)ccc(O)c2C1=O (stereo not drawn)   true (1)
28  CCOC(CCC(C)C)C1=CC(=O)c2c(O)ccc(O)c2C1=O (stereo not drawn)   true (1)
29  CCCCCCCCCCCCC(O)C1=CC(=O)c2c(O)ccc(O)c2C1=O (stereo not drawn)  false (0)
30  CCCCC(O)C1=CC(=O)c2c(O)ccc(O)c2C1=O (stereo not drawn)   true (1)
31  CCCCCCCOC(CCC(C)C)C1=CC(=O)c2c(OC)ccc(OC)c2C1=O (stereo not drawn)  false (0)
32  CCCCCOC(CCC(C)C)C1=CC(=O)c2c(OC)ccc(OC)c2C1=O (stereo not drawn)  false (0)

---

Examples of molecules with documented log10(IC50) follow.
Tested on: A549 cancer cells
Experiment: Cytotoxic activity against A549 cancer cells (sulforhodamin B method)
Format: cell-based
Settings: Homo sapiens; A549 cells, SRB method, 48 hours; read-out: ED50, cytotoxic activity against A549
Experimental: The cytotoxic activity against A549 cancer cells was determined using a method for measuring sulforhodamin B (SRB), which was developed in the year 1989 by NIC for measuring anticancer activity of the drug in vitro. […] Then, the dying solution was carefully dissolved in a certain amount of 10 mM Tris so that the O.D. value in the control group at 520 nm is 0.8-1.0 Å (optical density), and the optical density at 520nm was determined. The ED50 value was obtained from the determined optical density. […]
VALUE_KIND: log10(IC50) (log10 of the value in µg/mL)

>>> df
                                    molecule  assay_value
 0  CCCCCCCCCCCCC(OC(C)=O)C1=CC(=O)c2c(O)ccc(O)c2C1=O (stereo not drawn)         1.20
 1  CCCCCCCCCC(O)C1=CC(=O)c2c(OC)ccc(OC)c2C1=O (stereo not drawn)         0.96
 2  C=CCCCCCCCCC(=O)OC(CC=C(C)C)C1=CC(=O)c2c(O)ccc(O)c2C1=O (stereo not drawn)         0.83
 3  CCCCCCCCCCCCC(O)C1=CC(=O)c2c(OC)ccc(OC)c2C1=O (stereo not drawn)         0.45
 4  CCCCCCCC(=O)OC(CCC(C)C)C1=CC(=O)c2c(O)ccc(O)c2C1=O (stereo not drawn)         0.23
 5  CCCCCC(=O)OC(CC=C(C)C)C1=CC(=O)c2c(O)ccc(O)c2C1=O (stereo not drawn)         0.41
 6  CCCCC(=O)OC(CC=C(C)C)C1=CC(=O)c2c(O)ccc(O)c2C1=O (stereo not drawn)         0.40
 7  CCCCCCCCC(=O)OC(CC=C(C)C)C1=CC(=O)c2c(O)ccc(O)c2C1=O (stereo not drawn)         0.84
 8  CCCCCCCC(O)C1=CC(=O)c2c(O)ccc(O)c2C1=O (stereo not drawn)        -0.40
 9  CC/C=C/CC(=O)OC(CC=C(C)C)C1=CC(=O)c2c(O)ccc(O)c2C1=O (stereo not drawn)         0.52
10  CCCCCCCCCC(OC(C)=O)C1=CC(=O)c2c(O)ccc(O)c2C1=O (stereo not drawn)        -0.52
11  COc1ccc(OC)c2c1C(=O)C=C(C(O)CCC(C)C)C2=O (stereo not drawn)         0.34
12  CC(C)CCC(O)C1=CC(=O)c2c(O)ccc(O)c2C1=O (stereo not drawn) [reference compound]        -0.05
13  CCCCCCCOC(CCC(C)C)C1=CC(=O)c2c(O)ccc(O)c2C1=O (stereo not drawn)         0.38
14  CCCCCCCCCCCCC(O)C1=CC(=O)c2c(O)ccc(O)c2C1=O (stereo not drawn)         0.64
15  CCCCCC(O)C1=CC(=O)c2c(O)ccc(O)c2C1=O (stereo not drawn)         0.04
16  CC(=O)OC(CC=C(C)C)C1=CC(=O)c2c(O)ccc(O)c2C1=O (stereo not drawn)         0.00
17  CCCCCCCC(O)C1=CC(=O)c2c(OC)ccc(OC)c2C1=O (stereo not drawn)         0.88
18  O=c1[nH]cc(F)c(=O)[nH]1 [5-Fluorouracil, reference compound]         0.57

---

Examples of molecules with documented IC50 follow.
test system: A549 cancer cells; assay: Cytotoxic activity against A549 cancer cells (sulforhodamin B method); assay type: cell-based; settings: Homo sapiens; A549 cells, SRB method, 48 hours; read-out: ED50, cytotoxic activity against A549
VALUE_KIND: IC50 (µg/mL)

                                   molecule    target_of_assay  value_kind  output_unit  relational_operator  assay_value
0  CC(C)=CCC(OC(=O)CCl)C1=CC(=O)c2c(O)ccc(O)c2C1=O (stereo not shown)  A549 cancer cells        IC50        µg/mL                    =            4
1  CCCCCC(OC(C)=O)C1=CC(=O)c2c(O)ccc(O)c2C1=O (stereo not shown)  A549 cancer cells        IC50        µg/mL                    =          0.7
2  CCCCCCCCCCCC(=O)OC(CC=C(C)C)C1=CC(=O)c2c(O)ccc(O)c2C1=O (stereo not shown)  A549 cancer cells        IC50        µg/mL                    >           20
3  CCCCCCCCCC(OC(=O)CCCCC)C1=CC(=O)c2c(O)ccc(O)c2C1=O (stereo not shown)  A549 cancer cells        IC50        µg/mL                    =           13
4  CCCCCCCC(=O)OC(CC=C(C)C)C1=CC(=O)c2c(O)ccc(O)c2C1=O (stereo not shown)  A549 cancer cells        IC50        µg/mL                    =          4.3
5  COc1ccc(OC)c2c1C(=O)C=C(C(CCC(C)C)OCCC(C)C)C2=O (stereo not shown)  A549 cancer cells        IC50        µg/mL                    =          3.3
6  CCCCCOC(CCC(C)C)C1=CC(=O)c2c(OC)ccc(OC)c2C1=O (stereo not shown)  A549 cancer cells        IC50        µg/mL                    =          7.8
7  CC(C)=CCC(OC(=O)C=C(C)C)C1=CC(=O)c2c(O)ccc(O)c2C1=O (stereo not shown)  A549 cancer cells        IC50        µg/mL                    =          1.1
8  CCCCCOC(CCC(C)C)C1=CC(=O)c2c(O)ccc(O)c2C1=O (stereo not shown)  A549 cancer cells        IC50        µg/mL                    =          1.3
9  CCCCCCCCCCCCCCCCCC(=O)OC(CC=C(C)C)C1=CC(=O)c2c(O)ccc(O)c2C1=O (stereo not shown)  A549 cancer cells        IC50        µg/mL                    >           20

Data origin, for the record: patent US5696276A
